Test system: K-562 leukemia
assay_info: NCI-60 one-dose screen, 48 h
conditions: 10 µM unless noted
About 83,000 compounds went through this panel and 20% of them were active in at least one assay; those are over-represented in the sample as a whole. The source made the active and inactive calls. How the source made its calls: active means growth percent below 10; inactive means the rest.
Choose the fitting class; nothing outside yes (1) for active, no (0) for inactive is accepted.

Worked examples follow.
molecule	system_tested	class_name
CCCCCCn1c(-c2ccc(C(=O)O/N=C(\N)c3ccc4ccccc4c3)cc2)nc(-c2ccccc2)c1-c1ccccc1	K-562 leukemia	yes (1)
O=C1NC(=O)C(Cn2cnc3ccccc32)N1 (centres undefined)	K-562 leukemia	no (0)
Cc1ccc(S(=O)(=O)N/N=C/C2(c3ccccc3)CC2)cc1	K-562 leukemia	no (0)
O=C(O)CCC/C=C\C[C@H]1C=CC(=O)/C1=C/C[C@@H](O)CCc1cccc(C(F)(F)F)c1	K-562 leukemia	yes (1)
Cc1nc2nc(SCC(=O)O)[nH]c2c(=O)[nH]1	K-562 leukemia	no (0)

INPUT: Look up the recorded call for COc1ccc(C(=O)n2nc(-c3ccccc3)nc2N)cc1OC in this test.
OUTPUT: no (0)

INPUT: Next entry: COC(=O)CCC/C=C\C[C@H]1C=CC(=O)/C1=C/C[C@@H](O)CCc1cccc(C(F)(F)F)c1
OUTPUT: yes (1)

INPUT: Further, for CC(=O)Oc1ccccc1C(=O)N=C1[Se]CCCN1C(=O)c1ccccc1OC(C)=O ?
OUTPUT: no (0)

INPUT: Ok, now CC/C=C\C[C@@H]1C/C=C2/C(=O)C=C[C@H]2C/C=C\CCCC(=O)O1
OUTPUT: yes (1)

* * *

Tested on: SR leukemia
assay_info: NCI-60 one-dose screen, 48 h
conditions: 10 µM unless noted
The panel holds about 83,000 compounds, 20% with a hit somewhere; the sample as a whole holds those more often. The source made the active and inactive calls. How the source made its calls: active means growth percent below 10; inactive means the rest.
Form entry, call: pick from active, inactive

compound	class_name
Nc1ccc(Sc2ccc([N+](=O)[O-])c3nonc23)cc1	active
CCc1cccc2c3c(sc12)C(c1ccc(F)cc1)C(C#N)=C(N)O3 (configuration not stated)	inactive
O=C(N/N=C/[C@@H](O)[C@H](O)[C@H](O)CO)c1ccc(NC(=O)c2cccnc2)cc1	inactive

INPUT: Hi, sorry to bother you, what did the test record for CN(C)CCNc1nc2ccccc2c2c(=O)c3cc(F)ccc3sc12 ?
OUTPUT: active

INPUT: // query: CCOC(=O)c1c(C)nc2c(c1N)CC(=O)N2Cc1ccc(F)cc1
OUTPUT: inactive

INPUT: // repeat for Cc1ccc(C(=O)NN2C(=O)CSC2c2ccc(Cl)cc2)cn1 (configuration not stated) and report
OUTPUT: inactive

INPUT: What do we get for Cc1cc(=O)[nH]c(=O)n1Cc1cn(-c2c3ccccc3nc3ccccc23)nn1 ?
OUTPUT: inactive

INPUT: And CCOC(=O)C1=C(N)Oc2c(sc3c(CC)cccc23)C1c1ccc(F)cc1 (configuration not stated) ?
OUTPUT: inactive

INPUT: COc1ccc(C2C(C#N)=C(N)Oc3c2sc2c(C)cccc32)cc1 (configuration not stated) ?
OUTPUT: inactive

INPUT: // same read-out, input: O=C1c2cccc3cccc(c23)C(=O)N1Nc1nc(NC2CCCCC2)nc(N2CCOCC2)n1
OUTPUT: inactive
